Source: patent US20260109707A1

test system: T-Rex 293 cell line SC3 cells lacking increased expression of androgen receptor protein; assay: Cellular growth inhibition assay, T-Rex 293 SC3 cells without doxycycline (CellTiter-Glo, 72 hours); type: cell-based; conditions: 72 h, T-Rex 293 cell line SC3 cells not exposed to doxycycline (lacking increased androgen receptor expression)
readout: GI50

compound: CCNC(=O)C[C@@H]1N=C(c2ccc(N(C)C3CN(c4ccc(C(=O)N[C@H]5CC[C@H](Oc6ccc(C#N)c(Cl)c6)CC5)nn4)C3)cc2)c2c(sc(C)c2C)-n2c(C)nnc21 [I-65]
GI50: 500 to 1500 nM
--
compound: Cc1sc2c(c1C)C(c1ccc(OC3CC4(CCCN(c5ccc(C(=O)N[C@H]6CC[C@H](Oc7ccc(C#N)c(Cl)c7)CC6)nn5)C4)C3)cc1)=NCc1nnc(C)n1-2 (some centres unmarked) [I-473]
GI50: > 3000 nM

Look up GI50 for the entries below, preserving their order.
1. CCNC(=O)C[C@@H]1N=C(c2ccc(OCCN3CCN(c4ccc(C(=O)N[C@H]5CC[C@H](Oc6ccc(C#N)c(Cl)c6)CC5)nn4)CC3)cc2)c2c(sc(C)c2C)-n2c(C)nnc21 [I-25]
2. CNc1ccc2c(n1)C(c1ccc(OC3CC4(CCCN(c5ccc(C(=O)N[C@H]6CC[C@H](Oc7ccc(C#N)c(Cl)c7)CC6)nn5)C4)C3)cc1)=NCc1onc(C)c1-2 (some centres unmarked) [I-107]
3. CCNC(=O)C[C@@H]1N=C(c2ccc(CCC3CN(c4ccc(C(=O)N[C@H]5CC[C@H](Oc6ccc(C#N)c(Cl)c6)CC5)nn4)C3)cc2)c2c(sc(C)c2C)-n2c(C)nnc21 [I-31]

1: 500 to 1500 nM; 2: > 3000 nM; 3: 500 to 1500 nM

====

Give GI50 for every item shown.
test system: T-Rex 293 cell line SC3 cells lacking increased expression of androgen receptor protein; assay: Cellular growth inhibition assay, T-Rex 293 SC3 cells without doxycycline (CellTiter-Glo, 72 hours); format: cell-based; conditions: 72 h, T-Rex 293 cell line SC3 cells not exposed to doxycycline (lacking increased androgen receptor expression)

Below are worked cases with known answers.
compound: Cc1sc2c(c1C)C(c1ccc(N3CCCN(CCCNc4ncc(C(=O)N[C@H]5CC[C@H](Oc6ccc(C#N)c(Cl)c6)CC5)cn4)CC3)cc1)=NC(Cc1ncco1)c1nnc(C)n1-2 (some centres unmarked)
observed-measurement: > 3000 nM
--
compound: Cc1sc2c(c1C)C(c1ccc(N3CCC4(CC3)CCN(c3ccc(C(=O)N[C@H]5CC[C@H](Oc6ccc(C#N)c(Cl)c6)CC5)nn3)C4)cc1)=NC1(CC1)c1nnc(C)n1-2
observed-measurement: 500 to 1500 nM
--
compound: Cc1sc2c(c1C)C(c1ccc(OC[C@H]3C[C@]4(CCCN(c5ccc(C(=O)N[C@H]6CC[C@H](Oc7ccc(C#N)c(Cl)c7)CC6)nn5)C4)C3)cn1)=N[C@@H](Cc1ncco1)c1nnc(C)n1-2
observed-measurement: < 500 nM
--
compound: Cc1sc2c(c1C)C(c1ccc(N3CCC4(CCCN(c5ccc(C(=O)N[C@H]6CC[C@H](Oc7ccc(C#N)c(Cl)c7)CC6)nn5)C4)CC3)cc1)=N[C@@H](Cc1ncco1)c1nnc(C)n1-2
observed-measurement: < 500 nM

Look up GI50 for the entries below, preserving their order.
1. Cc1sc2c(c1C)C(Oc1ccc(C3CC4(CCN(c5ccc(C(=O)N[C@H]6CC[C@H](Oc7ccc(C#N)c(Cl)c7)CC6)nn5)CC4)C3)cc1)=NC(Cc1ncco1)c1nnc(C)n1-2 (some centres unmarked)
2. Cc1sc2c(c1C)C(c1ccc(C3CCC4(CC3)CCN(c3ccc(C(=O)N[C@H]5CC[C@H](Oc6ccc(C#N)c(Cl)c6)CC5)nn3)C4)cc1)=NC1(CC1)c1nnc(C)n1-2 (some centres unmarked)
3. Cc1sc2c(c1C)C(c1ccc(N3CCC4(CC3)CCN(c3ccc(C(=O)N[C@H]5CC[C@H](Oc6ccc(C#N)c(Cl)c6)CC5)nn3)C4)nc1)=NCc1nnc(C)n1-2
4. Cc1sc2c(c1C)C(c1ccc(OC3CCC4(C3)CN(c3ccc(C(=O)N[C@H]5CC[C@H](Oc6ccc(C#N)c(Cl)c6)CC5)nn3)C4)cc1)=N[C@@H](Cc1ncco1)c1nnc(C)n1-2 (some centres unmarked)
5. Cc1sc2c(c1C)C(c1cccc(OC3CCN(c4ccc(C(=O)N[C@H]5CC[C@H](Oc6ccc(C#N)c(Cl)c6)CC5)nn4)CC3)c1)=N[C@@H](C)c1nnc(C)n1-2
6. Cc1sc2c(c1C)C(c1ccc(N3CC4(C3)CC3(CCN(c5ccc(C(=O)N[C@H]6CC[C@H](Oc7ccc(C#N)c(Cl)c7)CC6)nn5)CC3)C4)cc1)=N[C@@H](Cc1ncco1)c1nnc(C)n1-2
7. Cc1sc2c(c1C)C(c1ccc(OC3CC4(CCN(c5ccc(C(=O)N[C@H]6CC[C@H](Oc7ccc(C#N)c(Cl)c7)CC6)nn5)CC4)C3)cc1)=NC1(CC1)c1nnc(C)n1-2

["> 3000 nM", "> 3000 nM", "> 3000 nM", "< 500 nM", "> 3000 nM", "> 3000 nM", "> 3000 nM"]

====

Give pKd for every item shown.
target: androgen receptor (Homo sapiens, UniProt P10275)
Sequence (P10275 whole entry T878A, form open): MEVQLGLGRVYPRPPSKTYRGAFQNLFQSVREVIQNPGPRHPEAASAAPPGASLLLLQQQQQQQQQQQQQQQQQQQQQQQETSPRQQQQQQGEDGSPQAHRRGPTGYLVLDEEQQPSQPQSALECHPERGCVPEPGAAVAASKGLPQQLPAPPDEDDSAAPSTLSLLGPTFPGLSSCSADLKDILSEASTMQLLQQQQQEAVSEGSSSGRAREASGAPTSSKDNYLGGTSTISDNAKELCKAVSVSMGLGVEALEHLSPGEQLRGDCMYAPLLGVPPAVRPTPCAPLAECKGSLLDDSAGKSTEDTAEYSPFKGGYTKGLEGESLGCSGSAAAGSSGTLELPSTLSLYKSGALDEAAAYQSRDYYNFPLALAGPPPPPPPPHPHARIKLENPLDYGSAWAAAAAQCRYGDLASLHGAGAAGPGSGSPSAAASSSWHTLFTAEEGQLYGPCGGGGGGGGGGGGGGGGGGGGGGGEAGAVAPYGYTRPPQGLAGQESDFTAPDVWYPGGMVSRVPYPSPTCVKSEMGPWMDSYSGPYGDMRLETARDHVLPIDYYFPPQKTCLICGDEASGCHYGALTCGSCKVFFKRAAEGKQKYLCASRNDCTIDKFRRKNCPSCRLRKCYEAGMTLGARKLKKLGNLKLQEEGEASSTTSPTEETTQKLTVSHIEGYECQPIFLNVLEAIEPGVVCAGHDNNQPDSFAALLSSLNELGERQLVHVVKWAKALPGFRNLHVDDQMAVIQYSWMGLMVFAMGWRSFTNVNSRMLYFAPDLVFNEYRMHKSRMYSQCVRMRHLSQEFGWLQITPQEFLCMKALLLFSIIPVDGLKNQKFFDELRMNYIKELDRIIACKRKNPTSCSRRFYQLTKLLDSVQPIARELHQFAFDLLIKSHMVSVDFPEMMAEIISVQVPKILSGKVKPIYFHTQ
pKd: −log10 of the molar value.

Below are worked cases with known answers.
smiles-input: CCNC(=O)C[C@@H]1N=C(c2ccc(N3CCC(CN4CC(N(C)c5ccc(C(=O)N[C@H]6CC[C@H](Oc7ccc(C#N)c(Cl)c7)CC6)nn5)C4)CC3)cc2)c2c(sc(C)c2C)-n2c(C)nnc21
readout: pKd
observed-measurement: 6.30 to 7.30

smiles-input: CCNC(=O)C[C@@H]1N=C(c2ccc(OCCOCCOC3CCN(c4ccc(C(=O)N[C@H]5CC[C@H](Oc6ccc(C#N)c(Cl)c6)CC5)nn4)CC3)cc2)c2c(sc(C)c2C)-n2c(C)nnc21
readout: pKd
observed-measurement: > 7.30

smiles-input: CCNC(=O)C[C@@H]1N=C(c2ccc(N3CCC(N(C)C4CN(c5ccc(C(=O)N[C@H]6CC[C@H](Oc7ccc(C#N)c(Cl)c7)CC6)nn5)C4)CC3)cc2)c2c(sc(C)c2C)-n2c(C)nnc21
readout: pKd
observed-measurement: > 7.30

The compound CCNC(=O)C[C@@H]1N=C(c2ccc(CC3CCN(c4ccc(C(=O)N[C@H]5CC[C@H](Oc6ccc(C#N)c(Cl)c6)CC5)nn4)CC3)cc2)c2c(sc(C)c2C)-n2c(C)nnc21 showed pKd equal to > 7.30

====

tested on: T-Rex 293 cell line SC3 cells lacking increased expression of androgen receptor protein; assay: Cellular growth inhibition assay, T-Rex 293 SC3 cells without doxycycline (CellTiter-Glo, 72 hours); format: cell-based; conditions: 72 h, T-Rex 293 cell line SC3 cells not exposed to doxycycline (lacking increased androgen receptor expression)
readout: GI50

Look up GI50 for the entries below, preserving their order.
1. Cc1sc2c(c1C)C(c1ccc(O[C@H]3CC[C@@]4(CCCN(c5ccc(C(=O)N[C@H]6CC[C@H](Oc7ccc(C#N)c(Cl)c7)CC6)nn5)C4)C3)cn1)=N[C@@H](Cc1ncco1)c1nnc(C)n1-2
2. Cc1sc2c(c1C)C(c1ccc(N(C)CC(=O)N3CCC(c4ccc(C(=O)N[C@H]5CC[C@H](Oc6ccc(C#N)c(Cl)c6)CC5)nn4)CC3)cc1)=N[C@H](Cc1ncco1)c1nnc(C)n1-2

1: > 3000 nM; 2: > 3000 nM

====

tested on: T-Rex 293 cell line SC3 cells lacking increased expression of androgen receptor protein; test: Cellular growth inhibition assay, T-Rex 293 SC3 cells without doxycycline (CellTiter-Glo, 72 hours); format: cell-based; conditions: 72 h, T-Rex 293 cell line SC3 cells not exposed to doxycycline (lacking increased androgen receptor expression)
readout: GI50

molecule: Cc1sc2c(c1C)C(c1cccc(N3CC4(CCCN(c5ccc(C(=O)N[C@H]6CC[C@H](Oc7ccc(C#N)c(Cl)c7)CC6)nn5)C4)C3)c1)=N[C@@H](C)c1nnc(C)n1-2
readout: GI50
observed-measurement: > 3000 nM

molecule: CCNC(=O)C[C@@H]1N=C(c2ccc(N3CCC(OC4CCN(c5ccc(C(=O)N[C@H]6CC[C@H](Oc7ccc(C#N)c(Cl)c7)CC6)nn5)CC4)CC3)cc2)c2c(sc(C)c2C)-n2c(C)nnc21
readout: GI50
observed-measurement: 500 to 1500 nM

molecule: Cc1sc2c(c1C)C(c1ccc(C3C[C@@H]3CC3CCCN(c4ccc(C(=O)N[C@H]5CC[C@H](Oc6ccc(C#N)c(Cl)c6)CC5)nn4)C3)cc1)=N[C@@H](Cc1ncco1)c1nnc(C)n1-2 (stereo partly shown)
readout: GI50
observed-measurement: 500 to 1500 nM

Look up GI50 for the entries below, preserving their order.
1. Cc1sc2c(c1C)C(c1ccc(CC3CC4(CCN(c5ccc(C(=O)N[C@H]6CC[C@H](Oc7ccc(C#N)c(Cl)c7)CC6)nn5)CC4)C3)cc1)=N[C@@H](C)c1nnc(C)n1-2
2. C#Cc1ccc(O[C@H]2CC[C@H](NC(=O)c3ccc(N4CCC(C5CN(c6ccc(C7=NC8(CC8)c8nnc(C)n8-c8sc(C)c(C)c87)cc6)C5)CC4)nn3)CC2)cc1Cl
3. Cc1sc2c(c1C)C(c1ccc(O[C@H]3C[C@@]4(CCCN(c5ccc(C(=O)N[C@H]6CC[C@H](Oc7ccc(C#N)c(Cl)c7)CC6)nn5)C4)C3)nc1)=N[C@H](Cc1ncco1)c1nnc(C)n1-2
4. Cc1sc2c(c1C)C(c1ccc(OC[C@H]3C[C@]4(CCCN(c5ccc(C(=O)N[C@H]6CC[C@H](Oc7ccc(C#N)c(Cl)c7)CC6)nn5)C4)C3)nc1)=N[C@@H](Cc1ncco1)c1nnc(C)n1-2
5. Cc1sc2c(c1C)C(c1ccc(N3CC45CCCCC4(C3)CN(c3ccc(C(=O)N[C@H]4CC[C@H](Oc6ccc(C#N)c(Cl)c6)CC4)nn3)C5)cc1)=N[C@@H](C)c1nnc(C)n1-2 (stereo partly shown)
6. Cc1sc2c(c1C)C(c1ccc(N3CCN(C(=O)c4ccc(C(=O)N[C@H]5CC[C@H](Oc6ccc(C#N)c(Cl)c6)CC5)nn4)CC3)cc1)=N[C@@H](Cc1ncco1)c1nnc(C)n1-2

1. > 3000 nM
2. > 3000 nM
3. > 3000 nM
4. > 3000 nM
5. > 3000 nM
6. > 3000 nM

// molecule COCC[C@@H]1N=C(c2ccc(C3CCC4(CCCN(c5ccc(C(=O)N[C@H]6CC[C@H](Oc7ccc(C#N)c(Cl)c7)CC6)nn5)C4)CC3)cc2)c2c(sc(C)c2C)-n2c(C)nnc21 (stereo partly shown) , assay T-Rex 293 cell line SC3 cells lacking increased expression of androgen receptor protein, GI50 value: > 3000 nM
